System: MM1.S
procedure-text: Antiproliferative activity against human MM1.S cells assessed as inhibition of cell growth incubated for 72 hrs by MTS assay
Assay type: functional, cell-based
measured-metric: IC50 (nM)

1. Cc1cc(Nc2cc3c(cn2)ncc(=O)n3-c2ccc(N)cc2)ncc1N1CCN(C(C)C)CC1 | 1580

* * *

study-target: Receptor-type tyrosine-protein kinase FLT3 (Homo sapiens, UniProt P36888, D835Y)
pIC50: −log10 of the molar value.
The entries below are paired with their reported pIC50.
measured-metric: pIC50

1. CCN1CCN(c2cnc(Nc3cc4c(cn3)ncc(=O)n4-c3ccc(N)cc3)cc2C)CC1 | 7.29
2. CN1CCN(c2ccc(Nc3cc4c(cn3)ncc(=O)n4-c3ccc(N(C)C)cc3)nc2)CC1 | 6.20
3. CC(=O)N1CCN(c2cnc(Nc3cc4c(cn3)ncc(=O)n4-c3ccc(N)cc3)cc2C)CC1 | 6.91
4. Cc1cc(Nc2cc3c(cn2)ncc(=O)n3-c2ccc(N)cc2)ncc1NC1CCN(C)CC1 | 6.46
5. CC(=O)Nc1ccc(-n2c(=O)cnc3cnc(Nc4ccc(N5CCN(C)CC5)cc4)cc32)cc1 | 5.61
6. CN1CCN(c2ccc(Nc3cc4c(cn3)ncc(=O)n4-c3ccc(CN)cc3)nc2)CC1 | 6.09
7. Cc1cc(Nc2cc3c(cn2)ncc(=O)n3-c2ccc(N)cc2)ncc1N1CCN(C(C)C)CC1 | 7.52
8. CN1CCN(c2ccc(Nc3cc4c(cn3)ncc(=O)n4-c3ccc(N)cc3)nc2)CC1 | 6.19
9. Cc1cc(Nc2cc3c(cn2)ncc(=O)n3-c2ccc(N)cc2)ncc1N1CCSCC1 | 7.05
10. CN1CCN(c2ccc(Nc3cc4c(cn3)ncc(=O)n4-c3ccc(NS(C)(=O)=O)cc3)nc2)CC1 | 6.16
11. Cc1cc(Nc2cc3c(cn2)ncc(=O)n3-c2ccc(N)cc2)ncc1N1CCN(C)CC1 | 7.39
12. Cc1cc(Nc2cc3c(cn2)ncc(=O)n3-c2ccc(N)cc2)ncc1N1CCOCC1 | 4.93
13. CN1CCN(c2ccc(Nc3ccc4ncc(=O)n(-c5ccc(N)cc5)c4n3)cc2)CC1 | 5.18
14. Cc1cc(Nc2cc3c(cn2)ncc(=O)n3-c2ccc(N)cc2)ncc1N1CCC(O)CC1 | 6.81
15. Cc1cc(Nc2cc3c(cn2)ncc(=O)n3-c2ccc(N)cc2)ncc1N1CCN(C2CC2)CC1 | 7.42
16. Cc1cc(Nc2cc3c(cn2)ncc(=O)n3-c2ccc(N)cc2)ncc1N1CCNCC1 | 7.47
17. Cc1cc(Nc2cc3c(cn2)ncc(=O)n3-c2ccc(N)cc2)ncc1N1CCC(N)CC1 | 7.38
18. Cc1cc(Nc2cc3c(cn2)ncc(=O)n3-c2ccc(N)cc2)ncc1N1C[C@@H](C)N[C@@H](C)C1 | 7.48
19. CN1CCN(c2ccc(Nc3ccc4ncc(=O)n(-c5ccc(N)cc5)c4n3)nc2)CC1 | 5.18

* * *

The entries below are paired with their reported pIC50.
Test system: BaF3
procedure-text: cells
experimental-parameters: Mus musculus, BaF3, 72 h
Description: Antiproliferative activity against mouse BaF3 cells harboring FLT3-ITD/D835Y mutant assessed as inhibition of cell growth incubated for 72 hrs by MTS assay
pIC50: −log10 of the molar value.
measured-metric: pIC50

1. Cc1cc(Nc2cc3c(cn2)ncc(=O)n3-c2ccc(N)cc2)ncc1N1CCNCC1 | 6.20
2. Cc1cc(Nc2cc3c(cn2)ncc(=O)n3-c2ccc(N)cc2)ncc1N1CCN(C(C)C)CC1 | 7.59
3. Cc1cc(Nc2cc3c(cn2)ncc(=O)n3-c2ccc(N)cc2)ncc1N1C[C@@H](C)N[C@@H](C)C1 | 6.77
